Let's look at some compounds and their measured log10(TGI).
Tested on: MDA-MB-435
Experiment: NCI tumour cell line growth inhibition, 48 h
READOUT KIND: log10(TGI) (log10 of the value in µM)

SMILES CODE: COc1ccc(C(=S)N2CCN(c3cccc(C)c3)CC2)cc1OC
TEST SYSTEM: MDA-MB-435
log10(TGI): 0.61
--
SMILES CODE: Cc1cccc(/C=C/c2c(C(=O)/C=C/c3ccccc3)c(C)nc3ccccc23)c1
TEST SYSTEM: MDA-MB-435
log10(TGI): 0.63
--
SMILES CODE: O=c1c2ccccc2nc(-c2cc3c(cc2Cl)Sc2nccn2S3(=O)=O)n1-c1ccccc1
TEST SYSTEM: MDA-MB-435
log10(TGI): 1.85
--
SMILES CODE: COc1ccc([C@H]2CC(=O)C[C@H](c3ccc(OC)cc3)C23C(=O)c2ccccc2C3=O)cc1
TEST SYSTEM: MDA-MB-435
log10(TGI): 0.77
--
SMILES CODE: O=[N+]([O-])C(=C(Nc1ccccc1)Nc1ccccc1)/C(Cl)=C(\Cl)[N+](=O)[O-]
TEST SYSTEM: MDA-MB-435
log10(TGI): 1.02
--
SMILES CODE: C=C1C(=O)O[C@@H]2C[C@@H](C)[C@@H]3C=CC(=O)[C@@]3(C)[C@@H](O)[C@H]12
TEST SYSTEM: MDA-MB-435
log10(TGI): 0.53

---

Tested on: LOX IMVI melanoma
Assay: NCI tumour cell line growth inhibition, 48 h
Let's look at some compounds and their measured TGI.
READOUT KIND: TGI

COMPOUND: [N-]=[N+]=NC(CCl)c1cn([C@H]2C[C@H](O)[C@@H](CO)O2)c(=O)[nH]c1=O (stereo not given in full)
READOUT KIND: TGI
MEAS VALUE: > 100 µM
//
COMPOUND: OC1c2ccccc2CC12Cc1ccccc1C2 (stereo not given)
READOUT KIND: TGI
MEAS VALUE: > 100 µM
//
COMPOUND: COc1ccc(OC)c(-c2nc3n(c2/C=C2/C(=O)Nc4ccccc42)CCS3)c1
READOUT KIND: TGI
MEAS VALUE: > 100 µM
//
COMPOUND: CN1C2=C(CC3=C1CC(C)(C)CC3=O)C(=O)CC(C)(C)C2
READOUT KIND: TGI
MEAS VALUE: > 100 µM
//
COMPOUND: COc1ccc(-c2nn(-c3cccc(Cl)c3)cc2-c2cc(-c3cccs3)[nH]c(=S)n2)cc1
READOUT KIND: TGI
MEAS VALUE: 13.8 µM

---

Test system: MALME-3M melanoma
Test: NCI tumour cell line growth inhibition, 48 h
Let's look at some compounds and their measured TGI.
READOUT KIND: TGI

COMPOUND: N#Cc1ccc(OCc2nc(N)nc(N)c2-c2ccc(Cl)c(Cl)c2)cc1
READOUT KIND: TGI
MEAS VALUE: 84.8 µM

COMPOUND: COc1ncnc2c(-c3ccccc3)cn(COCc3ccccc3)c12
READOUT KIND: TGI
MEAS VALUE: 7.69 µM

COMPOUND: CC(=O)N1C(OC(C)C)CC(C)N1c1ccccc1 (stereo unspecified)
READOUT KIND: TGI
MEAS VALUE: > 10 µM

COMPOUND: CN1CCN(C(=S)N(C(=O)c2ccc(Cl)cc2)c2ccccc2)CC1
READOUT KIND: TGI
MEAS VALUE: > 100 µM

COMPOUND: O=C1C(Cl)=C(Nc2cccc(Cl)c2)C(=O)N1Cc1ccc(Cl)cc1
READOUT KIND: TGI
MEAS VALUE: 2.84 µM

COMPOUND: CC1(C)O[C@H]2[C@H](O)C[C@](O)(CO)C[C@H]2O1
READOUT KIND: TGI
MEAS VALUE: > 100 µM

COMPOUND: CNC(=O)Nc1nc2ccc([N+](=O)[O-])cc2[nH]1
READOUT KIND: TGI
MEAS VALUE: > 100 µM

COMPOUND: O=C(NCCCCNc1cccccc1=O)OCc1ccccc1
READOUT KIND: TGI
MEAS VALUE: > 100 µM

COMPOUND: CC1CCC2(O)C3(C)CC4(O)OC2(C1O)C1(O)C3(O)C(OC(=O)c2ccc[nH]2)C(O)(C(C)C)C41C (stereo unspecified)
READOUT KIND: TGI
MEAS VALUE: > 100 µM

COMPOUND: c1coc(CNc2ncnc3[nH]ncc23)c1
READOUT KIND: TGI
MEAS VALUE: > 100 µM

COMPOUND: Cc1cccc(/C=C/c2c(C(=O)/C=C/c3ccccc3)c(C)nc3ccccc23)c1
READOUT KIND: TGI
MEAS VALUE: 3.2 µM

COMPOUND: BrC1=CCC23CC=C(Br)[C@H]4CC2(COC3)C[C@@H]1O4 (stereo partly specified)
READOUT KIND: TGI
MEAS VALUE: > 100 µM

COMPOUND: O=C(O)CN(CC(=O)O)Cc1cc(C#Cc2ccc(C#Cc3ccccc3)cc2)cc(CN(CC(=O)O)CC(=O)O)n1
READOUT KIND: TGI
MEAS VALUE: > 85.5 µM

COMPOUND: Cc1cc(-c2cccc3ccccc23)c(C#N)c(=S)n1C1OC(CO)C(O)C(O)C1O (stereo unspecified)
READOUT KIND: TGI
MEAS VALUE: > 100 µM

COMPOUND: O=C1Nc2ccccc2C1=Nc1cccc2ncccc12
READOUT KIND: TGI
MEAS VALUE: > 100 µM

COMPOUND: Cc1nnn[n-]1.N.N.N.N.N.[Cl-].[Co+3]
READOUT KIND: TGI
MEAS VALUE: > 100 µM

COMPOUND: C=C[C@@]1(C)CC[C@@H]2[C@@]3(C1)O[C@H]3CC1[C@](C)(C(=O)OC)CCC[C@@]12C (stereo partly specified)
READOUT KIND: TGI
MEAS VALUE: 35 µM

COMPOUND: COC1=C(N)C(=O)c2nc(C)ccc2C1=O
READOUT KIND: TGI
MEAS VALUE: 3.18 µM

COMPOUND: NC(=O)Nc1ccc(S(=O)(=O)Nc2ccc(S(N)(=O)=O)cc2)cc1
READOUT KIND: TGI
MEAS VALUE: > 100 µM

COMPOUND: CC1=C(c2ccccc2)C(c2ccccc2)=C(c2ccccc2)C2(c3ccccc3)C(=O)C(C)CN12 (stereo unspecified)
READOUT KIND: TGI
MEAS VALUE: > 100 µM

COMPOUND: Cc1c(C)c(C)c(-n2c(=O)n(C)c(=O)n2-n2c(=O)n(C)c(=O)n2-c2c(C)c(C)c(C)c(C)c2C)c(C)c1C
READOUT KIND: TGI
MEAS VALUE: > 100 µM

---

Let's look at some compounds and their measured TGI.
Tested on: DU-145 prostate
Experiment: NCI tumour cell line growth inhibition, 48 h
READOUT KIND: TGI

COMPOUND: COc1ccc(/C=C2\CCC(CNc3ccc(S(N)(=O)=O)cc3)C2=O)cc1 (stereo not given)
TEST SYSTEM: DU-145 prostate
MEAS VALUE: > 88.1 µM
--
COMPOUND: Cc1c[n+](=O)c2ccccc2n1[O-]
TEST SYSTEM: DU-145 prostate
MEAS VALUE: > 100 µM
--
COMPOUND: CCOC(=O)c1nnsc1NC(=O)Nc1ccc(Cc2ccc(NC(=O)Nc3snnc3C(=O)OCC)cc2)cc1
TEST SYSTEM: DU-145 prostate
MEAS VALUE: > 100 µM
--
COMPOUND: ClCc1cccc2c(CCl)cccc12
TEST SYSTEM: DU-145 prostate
MEAS VALUE: 4.08 µM
--
COMPOUND: OCCOCCN1CCN(CCCN2c3ccccc3Sc3ccc(C(F)(F)F)cc32)CC1
TEST SYSTEM: DU-145 prostate
MEAS VALUE: 27.6 µM
--
COMPOUND: OC(Cc1ccncc1)C(Cl)(Cl)Cl (stereo not given)
TEST SYSTEM: DU-145 prostate
MEAS VALUE: > 100 µM
--
COMPOUND: COc1cc(/C=C\c2cc(OC)c(OC)c(OC)c2)cc(NC(=O)/C=C/c2cc(OC)c(OC)c(OC)c2)c1OC
TEST SYSTEM: DU-145 prostate
MEAS VALUE: > 100 µM
--
COMPOUND: C[C@]12CC[C@@H]3c4ccc(O)cc4CC[C@H]3[C@@H]1CC[C@@H]2OP(=O)(O)O
TEST SYSTEM: DU-145 prostate
MEAS VALUE: > 100 µM
--
COMPOUND: CCCCON(OC(=O)c1ccc2ccccc2c1)C(=O)c1ccccc1
TEST SYSTEM: DU-145 prostate
MEAS VALUE: > 100 µM
--
COMPOUND: CN(CCNC(=O)c1nn(-c2ccccc2)c2c1Cc1ccccc1-2)CCNC(=O)c1nn(-c2ccccc2)c2c1Cc1ccccc1-2
TEST SYSTEM: DU-145 prostate
MEAS VALUE: 6.75 µM
